# SYSTEM TESTED: human CB1 receptor (Homo sapiens, UniProt P21554)
# Construct: expressed in transfected cells; host or cells: HEK293
# Sequence (P21554 whole entry): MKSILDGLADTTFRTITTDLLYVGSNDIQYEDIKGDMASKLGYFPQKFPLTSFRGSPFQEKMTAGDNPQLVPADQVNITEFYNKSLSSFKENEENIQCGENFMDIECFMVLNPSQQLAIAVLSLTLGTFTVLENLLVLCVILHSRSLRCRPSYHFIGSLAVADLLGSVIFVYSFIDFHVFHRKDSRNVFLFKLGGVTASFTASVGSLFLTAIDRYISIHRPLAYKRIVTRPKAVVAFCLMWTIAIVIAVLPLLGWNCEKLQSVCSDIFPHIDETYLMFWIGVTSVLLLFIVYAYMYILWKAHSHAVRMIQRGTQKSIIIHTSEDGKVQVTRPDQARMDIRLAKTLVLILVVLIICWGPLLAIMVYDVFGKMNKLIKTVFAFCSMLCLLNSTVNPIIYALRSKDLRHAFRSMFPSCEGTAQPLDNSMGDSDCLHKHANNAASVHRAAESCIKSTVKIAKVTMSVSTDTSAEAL
# PROTOCOL SUMMARY: bioSensAll β-arrestin2 plasma membrane translocation (+GRK2) BRET biosensor assay in HEK293 cells transfected with hCB1; test compound added before EC75-80 of agonist CP55,940 (100 nM)
# Type: cell-based
# PARTICULARS: βArrestin2 (+GRK2) BRET biosensor, vs CP55,940 100 nM (EC75-80), read-out: CB1 wt βarr2 IC50
pIC50: −log10 of the molar value.
PROPERTY LABEL: pIC50

// worked examples, pIC50 included
STRUCTURE SMILES	PROPERTY LABEL	ENDPOINT VALUE
C[C@@H]1CN(c2nc(OCC(C)(C)O)nc3c2nc(-c2ccccc2Cl)n3-c2ccc(Cl)cc2)CCO1	pIC50	8.16
CC1(C(N)=O)CCN(c2nc(NCCS(C)(=O)=O)nc3c2nc(-c2ccccc2Cl)n3-c2ccc(Cl)cc2)CC1	pIC50	7.52

a = CN(CCO)c1nc(N2CCC(C)(C(N)=O)CC2)c2nc(-c3ncccc3Cl)n(-c3ccc(Cl)cc3)c2n1
b = CC(C)(O)COc1nc(N2CCC(C)(C(N)=O)CC2)c2nc(-c3ccccc3Cl)n(-c3ccccc3)c2n1
Data request: Which has the smaller recorded pIC50, a or b ? The response must carry the label of the picked entry.
Data returned: b

###

# SYSTEM TESTED: human CB1 receptor (Homo sapiens)
# Construct: expressed in transfected cells; host or cells: HEK293
# PROTOCOL SUMMARY: bioSensAll β-arrestin2 plasma membrane translocation (+GRK2) BRET biosensor assay in HEK293 cells transfected with hCB1; test compound added before EC75-80 of agonist CP55,940 (100 nM)
# Type: cell-based
# PARTICULARS: βArrestin2 (+GRK2) BRET biosensor, vs CP55,940 100 nM (EC75-80), read-out: CB1 wt βarr2 IC50
pIC50: −log10 of the molar value.
PROPERTY LABEL: pIC50

As a guide, the following entries are already answered.
STRUCTURE SMILES	ENDPOINT VALUE
CN(CCO)c1nc(OCC(C)(C)O)nc2c1nc(-c1ccccc1Cl)n2-c1ccc(Cl)cc1	6.91
Cc1ccn(-c2nc(N3CCC(C)(C(N)=O)CC3)c3nc(-c4ccccc4Cl)n(-c4ccc(Cl)cc4)c3n2)n1	7.98
C[C@@H]1COCCN1c1nc(OCC(C)(C)O)nc2c1nc(-c1ccccc1Cl)n2-c1ccc(Cl)cc1	7.59
COC(=O)N1CCN(c2nc(OCC(C)(C)O)nc3c2nc(-c2ccccc2Cl)n3-c2ccc(Cl)cc2)CC1	8.10
CN(CCO)c1nc(N2CCC3(CC2)NC(=O)NC3=O)c2nc(-c3ccccc3Cl)n(-c3ccc(Cl)cc3)c2n1	7.63

I = CC1(C(N)=O)CCN(c2nc(N3C[C@H]4C[C@H]4C3)nc3c2nc(-c2ccccc2Cl)n3-c2ccc(Cl)cc2)CC1
II = CN(CCO)c1nc(N2CCC(C)(C(N)=O)CC2)c2nc(-c3ccc(C#N)cn3)n(-c3ccc(Cl)cc3)c2n1
Data request: Sort I and II by pIC50 descending and give the first. Give the label of your selection.
Data returned: I

a = CC1(C(N)=O)CCN(c2nc(OCCO)nc3c2nc(-c2ccccc2Cl)n3-c2ccc(Cl)cc2)CC1
b = CC(=O)NCCOc1nc(N2CCC(C(F)(F)F)CC2)c2nc(-c3ccccc3Cl)n(-c3ccc(Cl)cc3)c2n1
Data request: Endpoint returns whichever of a and b has the numerically higher pIC50. Selection: enter the item's label.
Data returned: a
